Measured folding stability dG unfold, listed per entry.
assay: folding stability dG unfold from trypsin proteolysis; higher = more stable
QUANTITY_KIND: folding stability dG unfold (kcal/mol)

ordered_residues="SAMNLRFPLSTEALAKLLENLTPDQTLELRVRIGDRWVRVRLEIHRIERKEDELRVEVTLEVEPLRPEDSAG [r14_335_TrMRF]" value_unit=kcal/mol result=3.33
ordered_residues="SAGGSAKEALVKAVEELFKKLFPDEPIEVLKVDPEKGRITIKVNSDEARKALEKALKELGIEVDLDSAGGSA [r15_196_TrMRF]" value_unit=kcal/mol result=3.75
ordered_residues="SAGGSAGGDTLTIVVEGMSAEELAALLKELFPDAEVTVTEVGEPRLVTVTVTVKVETEFELPEESAGGSAGG [r6_607_TrROS_Hall]" value_unit=kcal/mol result=2.13
ordered_residues="SAGKKYVVVIDIEVKMPGKTKPRPIVIPVPEGETIKEQLSELPGLDNVKIKIQVIPPDQDPDFAGQPISAGG [r19_339_TrROS]" value_unit=kcal/mol result=0.569
ordered_residues="SHPDEFPKELVDAIAKAFPNIKRIEVEPLPDKFVLLKVEFIDGDGEGRVAFAVPTPDGETALHEYLVRNPSA [r9_678_TrMRF]" value_unit=kcal/mol result=1
ordered_residues="MKTIEIEIKLSPEIKEALKEGKPLSLEELVNKIKEEIAKKLGLKEVKVKKIEIKKDENGEIIIKVTIEVKPS [r1_290_TrROS_Hall]" value_unit=kcal/mol result=3.9
ordered_residues="SAGGVRYRNPLTGVEIPPDATEEERAAIARAVAKPVVLPVTVPVYVEEGDVVVPVERTFHVPLGPDGSAGGS [r16_387_TrMRF]" value_unit=kcal/mol result=0.22
ordered_residues="SAGGKEKVKIKIKIIDKKTNKVYEAEATFDKETGKVTITFPDGSKITFDLKTNKLYIEKDGKIIEIESAGGS [r16_743_TrROS_Hall]" value_unit=kcal/mol result=2.66
ordered_residues="SMIKIKVVEKKDGKYKIKIENKKTGKTFEFEFDTKEEAEEAEKNPGKTIYLSEEALKKLKKENITKVEKVSA [r9_390_TrROS_Hall]" value_unit=kcal/mol result=0.442
ordered_residues="SAGSVTITLNIPPGQDVTLNIGGKEATLTVDPETKVYTMTDPQTGDVWTVTVDPNSPVASVTYTAAPAGSAG [r5_302_JUSTAS]" value_unit=kcal/mol result=0.996
ordered_residues="SAGGSAGGSAGTKTITLPNGLTLTIKPDEPVTITLVKVDPETNEIVEEKTITVYVKEDDLSAGGSAGGSAGG [r11_497_TrROS_Hall]" value_unit=kcal/mol result=1.08
ordered_residues="SAGGSAGGSASMSPEELAEKYREEYEKKYGIPAVEVKVEVIPEEEKYVITIKLPGSEITVIVSAGGSAGGSA [r18_145_JUSTAS]" value_unit=kcal/mol result=3.62
ordered_residues="SAGGSDYYIRVRIRIYKPTPEDMQEGKPIPEVEIWFPFDSVEEIKEFLENLPPNIKVDVDWFPPEDSAGGSA [r2_25_TrROS]" value_unit=kcal/mol result=3.35
ordered_residues="SAGGSAKPVMVRIKFPNMPPEKLQDAFQEYGMQPQNMDPNKGEMIIMIPWEAAEEIQDKNGFKIEISAGGSA [r15_731_TrROS]" value_unit=kcal/mol result=-0.489
